Origin of the recorded values: ChEMBL document CHEMBL1128487

Target: UniProt P30969
Sequence (P30969 whole entry): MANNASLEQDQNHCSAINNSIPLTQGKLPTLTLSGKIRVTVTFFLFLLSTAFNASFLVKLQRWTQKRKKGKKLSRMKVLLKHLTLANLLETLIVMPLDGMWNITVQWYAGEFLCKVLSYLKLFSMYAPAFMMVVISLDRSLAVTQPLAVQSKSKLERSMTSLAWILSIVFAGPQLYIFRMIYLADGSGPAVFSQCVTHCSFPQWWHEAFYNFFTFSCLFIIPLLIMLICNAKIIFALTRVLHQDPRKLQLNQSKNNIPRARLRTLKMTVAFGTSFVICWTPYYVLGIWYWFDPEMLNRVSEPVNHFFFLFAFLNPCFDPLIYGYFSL
Assay remarks: In vitro inhibition of LH release was determined in rat pituitary cells at a dose of 30 ug of analogue and 1 ng of LHRH
Format: functional, cell-based
Setup conditions: Pituitary gland cell
Square brackets hold non-standard residues; d marks the D form. Peptide text beside a SMILES is read from it. * marks the point of attachment. ξ: configuration not given here. 2Nal = N[C@@H](Cc1ccc2ccccc2c1)C(=O)O; ξLys(iPr) = CC(C)NCCCCC(N)C(=O)O; Picolinoyl = O=C(c1ccccn1)*; ξR = N=C(N)NCCCC(N)C(=O)O

Molecule | Target | Activity
CC(=O)N[C@@H](Cc1ccc2ccccc2c1)C(=O)N[C@@H](CCCCNC(=O)c1ccccn1)C(=O)NC(CCCN=C(N)N)C(=O)N1CCC[C@H]1C(N)=O (some centres not stated) (Ac-[2Nal]K(Picolinoyl)[ξR]P-NH2) | UniProt P30969 | 136
CCNC(=O)[C@@H]1CCCN1C(=O)[C@H](CCCN=C(N)N)NC(=O)[C@H](CC(C)C)NC(=O)[C@H](Cc1ccc2ccccc2c1)NC(=O)[C@H](Cc1ccc2ccccc2c1)NC(C)=O (Ac-[2Nal][2Nal]LRP-NHEt) | UniProt P30969 | 122
CC(=O)NC(Cc1ccc2ccccc2c1)C(=O)N[C@@H](CCCCNC(=O)c1ccccn1)C(=O)N[C@@H](CCCN=C(N)N)C(=O)NC(C)C(N)=O (single isomer, unassigned) | UniProt P30969 | 26
CCNC(=O)[C@@H]1CCCN1C(=O)[C@H](CC(C)C)NC(=O)[C@H](Cc1ccc2ccccc2c1)NC(=O)[C@H](Cc1ccc(O)cc1)NC(=O)[C@H](CO)NC(=O)[C@H](Cc1ccc2ccccc2c1)NC(C)=O (Ac-[2Nal]SY[2Nal]LP-NHEt) | UniProt P30969 | 11
CC(=O)N[C@@H](Cc1ccc2ccccc2c1)C(=O)N[C@@H](CCCCNC(=O)c1ccccn1)C(=O)N1CCC[C@H]1C(N)=O | UniProt P30969 | 113
CC(=O)N[C@@H](Cc1ccc2ccccc2c1)C(=O)N[C@@H](CCCCNC(=O)c1ccccn1)C(=O)NC(CCCCNC(C)C)C(=O)N1CCC[C@H]1C(N)=O (some centres not stated) (Ac-[2Nal]K(Picolinoyl)[ξLys(iPr)]P-NH2) | UniProt P30969 | 128
CCNC(=O)[C@@H]1CCCN1C(=O)[C@H](Cc1ccc2ccccc2c1)NC(C)=O (Ac-[2Nal]-Pro-NHEt) | UniProt P30969 | 59
